B1: tRNA (parent)
chain: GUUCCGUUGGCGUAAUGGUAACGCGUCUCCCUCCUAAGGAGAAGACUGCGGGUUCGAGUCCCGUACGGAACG

Variants of: B1
Assay Overview: yeast fitness relative to wild type (ratio to wild type); higher = fitter; tRNA-Arg(CCU), competitive growth, 37 C, YPD
Variants at the floor of the assay were thinned out.
Decision: yeast fitness compared against 0.7; not below it gives Fulfilled, below it gives Not fulfilled.

{"Polymer Sequence": "GUUCCGUUGGCGUAAUGGUAUCGCGUCUCCCUCCUAAGGCGUGGACUGUCGGUUCGAGUCCCGUAUGGAACG [A21U A40C A42U A43G C49U G50C C66U]", "Class": "Not fulfilled"}
{"Polymer Sequence": "GUUCCGUUGGCGUAAUGGUACCGCGUCUCCCUCCUAAGGAGAAGACUGCGGGUUCGAGUCCUGUAUGGAACG [A21C C62U C66U]", "Class": "Not fulfilled"}
{"Polymer Sequence": "GUUCCGUUGGCGUAAUGGUAACGCGUCUCCUUCCUAAGAAGAAAACUGCGGGUUCGAGUCUCGUACGGAACG [C31U G39A G44A C61U]", "Class": "Not fulfilled"}
{"Polymer Sequence": "GUUCCGUUGGCGUAAUGGUAAGGCGUCUCCCUCCUAAGGAGAAGACUGUGGGUUCGCGUCCCGUACGGAACG [C22G C49U A57C]", "Class": "Not fulfilled"}
{"Polymer Sequence": "GUUCCGUUGGCGUAAUGGUAACCCGUCUCCCUCCUAAGGAGAAGAUUGCGGGUUCGAGUCCCGUACAGAACG [G23C C46U G67A]", "Class": "Not fulfilled"}
{"Polymer Sequence": "GUUCCGUUGGCGUAACGGUAACGCGUCUCCCUCCUAAGGAGAAGACUGCGGGUUCGAGUCUCGUACGGAACG [U16C C61U]", "Class": "Fulfilled"}
{"Polymer Sequence": "GUUCCGUUGGCGUAAUGGUAACGCGUCUCACUCCUAAGGAGAAGACUGCGGAUUCGAGUCCCGUACGGAACG [C30A G52A]", "Class": "Fulfilled"}
{"Polymer Sequence": "GUUCCGUUCGCGUACUGGUAACGCGUCUCCCUCGUAAGGAGAAGACUGCGGGUUCGAGUCCCGUACGGAACG [G9C A15C C34G]", "Class": "Not fulfilled"}
{"Polymer Sequence": "GUUGCGAUAGUGUAAUGGUAACGCGUCUCGCUCCUAAGGAGAAGACUGCGGGUUCGAGUCCCGUACGGAACG [C4G U7A G9A C11U C30G]", "Class": "Not fulfilled"}
{"Polymer Sequence": "GUUCCGUUGGCGUAGUGGUUACGCGUCUCCCUCCUAAGGAGAAGACUGCGGGUUCGAGUGCCGUACGGAACG [A15G A20U C60G]", "Class": "Not fulfilled"}
{"Polymer Sequence": "GUUCCGAUGGCGUAAUGGUAACGCGUCUCCCUCCUAAGGAGAAGACUGCGGGUUCGAGUCCAGUACGGGGCG [U7A C62A A69G A70G]", "Class": "Not fulfilled"}
{"Polymer Sequence": "GUUCCGUUGGCGUAAUGGUAACGUGUCUACCUCCUAAGGAGAAGACUGCGGGUUCGAGUCCCGUACGGAACG [C24U C29A]", "Class": "Not fulfilled"}
{"Polymer Sequence": "GUUCCGUAGGCGUAAUGGUAACGCGUCUCCGUCCUAAGGAGAAGACUGCGGGUUUGAGUCCCGUACCGAACG [U8A C31G C55U G67C]", "Class": "Not fulfilled"}
{"Polymer Sequence": "GUUCCGUUGGCGUAAGGGUAACGCGUCUCCCUCCUAAGGAGAAGACUGCGGGUUCGAGUCUCGUAGGGAACG [U16G C61U C66G]", "Class": "Not fulfilled"}
{"Polymer Sequence": "GUUCCGUUGGCGUAAUGGUAACGCGUCUCCGUCCUAAGGAGAACACUGCGGGUUCGAGUCCCGUACCGAACG [C31G G44C G67C]", "Class": "Not fulfilled"}
{"Polymer Sequence": "GUUCCGUUGGGGUAAUGGUAACGCGUCUCCCUCCUAAGGAGCAGACAGCGGGUUCGAGUCCCCUACGGCACG [C11G A42C U47A G63C A69C]", "Class": "Not fulfilled"}
{"Polymer Sequence": "GUUCCGUUGGCGUAAUGGUAACGCGUCUCCCUCCUAAGGAGAAGACGGCAGGUUAAAGUCCCGUACGGAACG [U47G G50A C55A G56A]", "Class": "Not fulfilled"}
{"Polymer Sequence": "GUUCCGUUGGCGUAAUGGUAACGCGUCUCCUUCCUAAGGAGAAGCCUGCGGGUUCGAGUCCCGUACGGAACG [C31U A45C]", "Class": "Fulfilled"}
{"Polymer Sequence": "GUUCCGUUGGCGUAAUGGUAACGCGUGUCCCUCCUAAGGAGAAGAGUGCGGGUUCGAGUCCCGUACGGAACG [C27G C46G]", "Class": "Fulfilled"}
{"Polymer Sequence": "GUGCCGUUGGCGUAAUGGUAACGAGUCUCCCUCCUAAGGAGAAGACUGCGGGUUCGAAUCCCGUACGGAACG [U3G C24A G58A]", "Class": "Not fulfilled"}
{"Polymer Sequence": "GUUCCGUUGGCGUAAUGGUAACGCGUCACCCUCCUAAGGAGAAGAAUGCGGGUUCGAGUCCCGUACGGAACG [U28A C46A]", "Class": "Fulfilled"}
{"Polymer Sequence": "GCUCCGUUGGCGUAAUGGUAACGCGUCUCCCUCCUAAGGAGAAGACUGCGGGUUGCAGUCCCGUACGGUACG [U2C C55G G56C A69U]", "Class": "Not fulfilled"}
{"Polymer Sequence": "GUUCCGUUGGCGUAAUGGUAACGCGUCUGCCUCCAAAGGAGAAGACUGCGGGUUCGAGUCCCGCACGGAACG [C29G U35A U64C]", "Class": "Not fulfilled"}
{"Polymer Sequence": "GUUCCGUUGGCGUAAUGGUAUCGUGUCUCCCUCCUAAGGAGAAGACUGCGGGUUCGUGUCCCGUCCGGCACG [A21U C24U A57U A65C A69C]", "Class": "Not fulfilled"}
{"Polymer Sequence": "GUUCCAUUGGCGUAAUGGUAACGCGUCUCUCUCCUAGGGAGAAGACUGCGGGUUCGAGUCCCGUACGGAACG [G6A C30U A37G]", "Class": "Not fulfilled"}
{"Polymer Sequence": "GUUCCGUUGGCGUAAUGGUAACGCGUCUCGCUCCUAAGGAGAAGACUCCGGGUUCGAGUCCCGUACGGAACG [C30G G48C]", "Class": "Not fulfilled"}
{"Polymer Sequence": "GUUCCGUUGGCGUAAUGGUAACGCGUCUCCCUCCUAAGGAGAAGACUGCGGGUCCGAGUCCCGUACAGAACG [U54C G67A]", "Class": "Fulfilled"}
{"Polymer Sequence": "GUUCCGUUGGCAUAAUGGUAACGCGUCUCCCACCUAAGGUCAAGAAUGCGGAUUCGAGUCCCGUACGGAACG [G12A U32A A40U G41C C46A G52A]", "Class": "Not fulfilled"}
{"Polymer Sequence": "GUUCCGUUGCCGUAAUGGUAACGCGUCUGCCUCCUAGGGAGAAGACUGCGGGUUCGAGUCCCGUACGGAACG [G10C C29G A37G]", "Class": "Not fulfilled"}
{"Polymer Sequence": "GUUCCGUUGGCGUAAUCGUAACGCGUCUCCCUCCUAAGGAGAAGAGUGCGGGUUCGAGUCCCGUACGGAACG [G17C C46G]", "Class": "Fulfilled"}
{"Polymer Sequence": "GUUCCCUUGGCGUAAUGGCAACGCGUCUCCCACCUAAGGAGCAGACUGCGGGUUCGAGUCCCGUACGGAACG [G6C U19C U32A A42C]", "Class": "Not fulfilled"}
{"Polymer Sequence": "GUUCCCUUGGGGUAAUGGUAACGCGUCUCCCUCCUAAGGAGAACACUGCGGGUUCGAGUCCCGUACGGAACG [G6C C11G G44C]", "Class": "Not fulfilled"}
{"Polymer Sequence": "GUUCCGUUGGCGUAAUGGUAACGCGUCUUCCUCCUAAGGAGAGGACUGCGGGGUCGAGUCCCAUACGGAACG [C29U A43G U53G G63A]", "Class": "Not fulfilled"}
{"Polymer Sequence": "GUUCCGUUGGCGUAAUGGUAACGCGUCUCCCUCCUAAGGUGAAGACUGCGGCUUCGAGUGCCGUACGGAACG [A40U G52C C60G]", "Class": "Not fulfilled"}
{"Polymer Sequence": "GUUCCGAUGGGGUAAUGGUAACGCGUCUCCCUCCUAAGGUGCAGACUGCGGGUUCGAGUCCCGUACGGAACG [U7A C11G A40U A42C]", "Class": "Not fulfilled"}
{"Polymer Sequence": "GUUCCGUUGGCGUAAUGGUAACGCGUCUCGCUCCCAAGGAGAAGACUGCGGGUUCGAGUCCUGUACGGAACG [C30G U35C C62U]", "Class": "Not fulfilled"}
{"Polymer Sequence": "GUUCAGUUGCCGUAAUGGUAACGCGCCUCCCUCCUAAGGAGAAGACUGCGGCUUCGAGUCCCGUACGGAACG [C5A G10C U26C G52C]", "Class": "Not fulfilled"}
{"Polymer Sequence": "GCUUCGUUGGCGUAAUGGUAACGCGUCUCCCUCCUACGGAGAAGACUACGGGUUCGAGUGCCGUUCGGAACG [U2C C4U A37C G48A C60G A65U]", "Class": "Not fulfilled"}
